test: Cmax in CD-1 mouse at 10 mg/kg, po; type: ADME, organism-based; set-up: dose 10 mg/kg, route po; conditions: in vivo
Measured Cmax, listed per entry.
Your answer is read as ng/mL, so omit the unit and give the number.

Answered cases to consult:
SMILES_RECORD	EXPERIMENTAL_ENDPOINT	UNIT_STRING	RESULT_VALUE
Cc1ccc(-n2nc(C(=O)N3CCCN(C(=O)c4nc(-c5ccc6c(c5)N(C5CCCC5)[C@H](C)C(=O)N6C)n(-c5ccc(C)cc5)n4)CC3)nc2-c2ccc3c(c2)N(C2CCCC2)[C@H](C)C(=O)N3C)cc1	Cmax	ng/mL	286
Cc1ccc(-n2nc(C(=O)NCCNC(=O)c3nc(-c4ccc5c(c4)N(C4CCCC4)[C@H](C)C(=O)N5C)n(-c4ccc(C)cc4)n3)nc2-c2ccc3c(c2)N(C2CCCC2)[C@H](C)C(=O)N3C)cc1	Cmax	ng/mL	33.7
Cc1ccc(-n2nc(C(=O)N3C[C@H](C)N(C(=O)c4nc(-c5ccc6c(c5)N(C5CCCC5)[C@H](C)C(=O)N6C)n(-c5ccc(C)cc5)n4)C[C@H]3C)nc2-c2ccc3c(c2)N(C2CCCC2)[C@H](C)C(=O)N3C)cc1	Cmax	ng/mL	1340
Cc1ccc(-n2nc(C(=O)N(C)CCN(C)C(=O)c3nc(-c4ccc5c(c4)N(C4CCCC4)[C@H](C)C(=O)N5C)n(-c4ccc(C)cc4)n3)nc2-c2ccc3c(c2)N(C2CCCC2)[C@H](C)C(=O)N3C)cc1	Cmax	ng/mL	264

So for Cc1ccc(-n2nc(C(=O)N[C@@H]3CCCC[C@H]3NC(=O)c3nc(-c4ccc5c(c4)N(C4CCCC4)[C@H](C)C(=O)N5C)n(-c4ccc(C)cc4)n3)nc2-c2ccc3c(c2)N(C2CCCC2)[C@H](C)C(=O)N3C)cc1 , the logged Cmax turned out to be 33.7

---

assay: Metabolic stability in dog liver microsomes assessed as half life; type: ADME, Canis lupus familiaris, Microsome
EXPERIMENTAL_ENDPOINT: half-life (h)
The response must be a number in h with no trailing unit.

# annotated cases, reported half-life shown
SMILES_RECORD	half-life, h
Cc1ccc(-n2nc(C(=O)N3C[C@H](C)N(C(=O)c4nc(-c5ccc6c(c5)N(C5CCC5)[C@H](C)C(=O)N6C)n(-c5ccc(C)cc5)n4)C[C@H]3C)nc2-c2ccc3c(c2)N(C2CCC2)[C@H](C)C(=O)N3C)cc1	34.7
C[C@@H]1CN(C(=O)c2nc(-c3ccc4c(c3)N(C3CCC3)[C@H](C)C(=O)N4C)n(-c3cccc(Cl)c3)n2)[C@@H](C)CN1C(=O)c1nc(-c2ccc3c(c2)N(C2CCC2)[C@H](C)C(=O)N3C)n(-c2cccc(Cl)c2)n1	14.6

The reported value for Cc1ccc(-n2nc(C(=O)N3C[C@H](C)N(C(=O)c4nc(-c5ccc6c(c5)N(C)[C@H](C)C(=O)N6C)n(-c5ccc(C)cc5)n4)C[C@H]3C)nc2-c2ccc3c(c2)N(C)[C@H](C)C(=O)N3C)cc1 in terms of half-life is 3.02

---

experiment: Half life in CD-1 mouse at 10 mg/kg, po; assay type: ADME, organism-based; conditions: in vivo
Documented half-life across a set of compounds
Express your answer in min, writing the number without its unit.

Some solved cases for reference:
SMILES_RECORD	UNIT_STRING	half-life
Cc1ccc(-n2nc(C(=O)N[C@@H]3CCCC[C@H]3NC(=O)c3nc(-c4ccc5c(c4)N(C4CCCC4)[C@H](C)C(=O)N5C)n(-c4ccc(C)cc4)n3)nc2-c2ccc3c(c2)N(C2CCCC2)[C@H](C)C(=O)N3C)cc1	min	6
Cc1ccc(-n2nc(C(=O)N3CCCN(C(=O)c4nc(-c5ccc6c(c5)N(C5CCCC5)[C@H](C)C(=O)N6C)n(-c5ccc(C)cc5)n4)CC3)nc2-c2ccc3c(c2)N(C2CCCC2)[C@H](C)C(=O)N3C)cc1	min	9

Then this compound:
Given item Cc1ccc(-n2nc(C(=O)NCCCNC(=O)c3nc(-c4ccc5c(c4)N(C4CCCC4)[C@H](C)C(=O)N5C)n(-c4ccc(C)cc4)n3)nc2-c2ccc3c(c2)N(C2CCCC2)[C@H](C)C(=O)N3C)cc1 , the value recorded as its half-life is 44.4

---

assay: Half life in CD-1 mouse at 10 mg/kg, po; assay type: ADME, organism-based; conditions: in vivo
EXPERIMENTAL_ENDPOINT: half-life (min)
Record the value in min, omitting the unit from your answer.

The following compounds have reported results that may help.
SMILES_RECORD	half-life (min)
Cc1ccc(-n2nc(C(=O)N3C[C@H](C)N(C(=O)c4nc(-c5ccc6c(c5)N(C5CCCC5)[C@H](C)C(=O)N6C)n(-c5ccc(C)cc5)n4)C[C@H]3C)nc2-c2ccc3c(c2)N(C2CCCC2)[C@H](C)C(=O)N3C)cc1	11.4
Cc1ccc(-n2nc(C(=O)N3CCN(C(=O)c4nc(-c5ccc6c(c5)N(C5CCCC5)[C@H](C)C(=O)N6C)n(-c5ccc(C)cc5)n4)[C@H](C)C3)nc2-c2ccc3c(c2)N(C2CCCC2)[C@H](C)C(=O)N3C)cc1	169
Cc1ccc(-n2nc(C(=O)N(C)CCN(C)C(=O)c3nc(-c4ccc5c(c4)N(C4CCCC4)[C@H](C)C(=O)N5C)n(-c4ccc(C)cc4)n3)nc2-c2ccc3c(c2)N(C2CCCC2)[C@H](C)C(=O)N3C)cc1	29.4

Turning to the following compound.
half-life measured on Cc1ccc(-n2nc(C(=O)N3CCN(C(=O)c4nc(-c5ccc6c(c5)N(C5CCCC5)[C@H](C)C(=O)N6C)n(-c5ccc(C)cc5)n4)CC3)nc2-c2ccc3c(c2)N(C2CCCC2)[C@H](C)C(=O)N3C)cc1 = 49.2

---

test system: Ty-82; assay: Antiproliferative activity against human Ty-82 cells incubated for 72 hrs by sulforhodamine B based cell counting kit-8 assay; type: functional; conditions: TY82, 72 h
In this section, each of the molecules is paired with its reported IC50.

Here are 4 molecules together with their reported answers.
SMILES_RECORD	EXPERIMENTAL_TARGET	IC50
Cc1ccc(-n2nc(C(=O)N3CCC4(CCN(C(=O)c5nc(-c6ccc7c(c6)N(C6CCCC6)[C@H](C)C(=O)N7C)n(-c6ccc(C)cc6)n5)C4)C3)nc2-c2ccc3c(c2)N(C2CCCC2)[C@H](C)C(=O)N3C)cc1	Ty-82	2.5 nM
Cc1ccc(-n2nc(C(=O)N3CCNCC3)nc2-c2ccc3c(c2)N(C2CCCC2)[C@@H](C)C(=O)N3C)cc1	Ty-82	> 20000 nM
Cc1ccc(-n2nc(C(=O)N3CC4(C3)CN(C(=O)c3nc(-c5ccc6c(c5)N(C5CCCC5)[C@H](C)C(=O)N6C)n(-c5ccc(C)cc5)n3)C4)nc2-c2ccc3c(c2)N(C2CCCC2)[C@H](C)C(=O)N3C)cc1	Ty-82	76 nM
Cc1ccc(-n2nc(C(=O)N3CCN(C(=O)c4nc(-c5ccc6c(c5)N(C5CCCC5)[C@@H](C)C(=O)N6C)n(-c5ccc(C)cc5)n4)CC3)nc2-c2ccc3c(c2)N(C2CCCC2)[C@H](C)C(=O)N3C)cc1	Ty-82	16.7 nM

// next entry
According to the records, this molecule Cc1ccc(-n2nc(C(=O)N3C[C@H](C)N(C(=O)c4nc(-c5ccc6c(c5)N(C5CCC5)[C@H](C)C(=O)N6C)n(-c5ccc(C)cc5)n4)C[C@H]3C)nc2-c2ccc3c(c2)N(C2CCC2)[C@H](C)C(=O)N3C)cc1 displays IC50 of 0.05 nM

---

tested on: Ty-82; test: Antiproliferative activity against human Ty-82 cells incubated for 72 hrs by sulforhodamine B based cell counting kit-8 assay; type: functional; details: TY82, 72 h
EXPERIMENTAL_ENDPOINT: pIC50
To interpret pIC50, take it as minus log10 of a concentration measured in moles per litre.

Reference set (3 entries):
SMILES_RECORD	pIC50
Cc1ccc(-n2nc(C(=O)N3CCNCC3)nc2-c2ccc3c(c2)N(C2CCCC2)[C@H](C)C(=O)N3C)cc1	7.62
C[C@@H]1CN(C(=O)c2nc(-c3ccc4c(c3)N(C3CCC3)[C@H](C)C(=O)N4C)n(-c3cccc(Cl)c3)n2)[C@@H](C)CN1C(=O)c1nc(-c2ccc3c(c2)N(C2CCC2)[C@H](C)C(=O)N3C)n(-c2cccc(Cl)c2)n1	10.30
C[C@@H]1C(=O)N(C)c2ccc(-c3nc(C(=O)N4CCN(C(=O)c5nc(-c6ccc7c(c6)N(C6CCCC6)[C@H](C)C(=O)N7C)n(-c6ccc7ccccc7c6)n5)CC4)nn3-c3ccc4ccccc4c3)cc2N1C1CCCC1	9.22

Summary line: Cc1ccc(-n2nc(C(=O)N3C[C@H](C)N(C(=O)c4nc(-c5ccc6c(c5)N(C5CCCC5)[C@H](C)C(=O)N6C)n(-c5ccc(C)cc5C)n4)C[C@H]3C)nc2-c2ccc3c(c2)N(C2CCCC2)[C@H](C)C(=O)N3C)c(C)c1 , Ty-82, reported pIC50 = 9.12

Given the compound Cc1ccc(-n2nc(C(=O)N3C[C@H](C)N(C(=O)c4nc(-c5ccc6c(c5)N(Cc5ccccc5)[C@H](C)C(=O)N6C)n(-c5ccc(C)cc5)n4)C[C@H]3C)nc2-c2ccc3c(c2)N(Cc2ccccc2)[C@H](C)C(=O)N3C)cc1 and test system Ty-82, the measured pIC50 is 8.95
